Target: T1, cynomolgus monkey IL-33 (cys mut) (cynomolgus monkey)
T1 chain: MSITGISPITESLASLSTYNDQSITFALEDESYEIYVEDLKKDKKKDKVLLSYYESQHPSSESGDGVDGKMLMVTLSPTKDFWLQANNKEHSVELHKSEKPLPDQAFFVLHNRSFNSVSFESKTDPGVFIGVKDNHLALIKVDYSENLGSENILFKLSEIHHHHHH
Assay: cell-based or functional assay
reported.metric: IC50, HEK293 ST2 NFkB cyno IL-33 (pM)
# value in pM; strip the unit string

Record excerpt, results attached:
binder="IL33-169 (antibody, human IgG1, kappa, V domains shown) VH: EVQLVESGGGLVQPGGSLRLSCAASGFTFSSYWMYWVRQAPGKGLEWVAAITPNGGEDYYPDSVKGRFTISRDNAKNSLYLQMNSLRAEDTAVYYCARGHYYYTSYSLGYWGQGTLVTVSS VL: DIQMTQSPSSLSASVGDRVTITCKASQNINKHLDWYQQKPGKAPKLLIYFTNNLQTGVPSRFSGSGSGTDFTLTISSLQPEDFATYYCFQYNNGWTFGGGTKVEIKR" reported_metric="IC50, HEK293 ST2 NFkB cyno IL-33" numeric_value=176
binder="IL33-153 (antibody, human IgG1, kappa, V domains shown) VH: EVQLVESGGGLVQPGGSLRLSCAASGFTFSSYWMYWVRQAPGKGLEWVASITPNAGEDYYPDSVKGRFTISRDNAKNSLYLQMNSLRAEDTAVYYCARGHYYYTSYSLGYWGQGTLVTVSS VL: DIQMTQSPSSLSASVGDRVTITCKASQNINKHLDWYQQKPGKAPKLLIYFTNNLQTGVPSRFSGSGSGTDFTLTISSLQPEDFATYYCFQYNQGWTFGGGTKVEIKR" reported_metric="IC50, HEK293 ST2 NFkB cyno IL-33" numeric_value=122

Please fill in: IC50, HEK293 ST2 NFkB cyno IL-33 reported for IL33-154 (antibody, human IgG1, kappa, V domains shown) VH: EVQLVESGGGLVQPGGSLRLSCAASGFTFSSYWMYWVRQAPGKGLEWVASITPNAGEDYYPESVKGRFTISRDNAKNSLYLQMNSLRAEDTAVYYCARGHYYYTSYSLGYWGQGTLVTVSS VL: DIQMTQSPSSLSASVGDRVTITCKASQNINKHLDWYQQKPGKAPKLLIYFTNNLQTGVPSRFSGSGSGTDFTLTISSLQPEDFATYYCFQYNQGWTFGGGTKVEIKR = 133

Please fill in: IC50, HEK293 ST2 NFkB cyno IL-33 reported for IL33-156 (antibody, human IgG1, kappa, V domains shown) VH: EVQLVESGGGLVQPGGSLRLSCAASGFTFSSYWMYWVRQAPGKGLEWVAAITPNGGEDYYPESVKGRFTISRDNAKNSLYLQMNSLRAEDTAVYYCARGHYYYTSYSLGYWGQGTLVTVSS VL: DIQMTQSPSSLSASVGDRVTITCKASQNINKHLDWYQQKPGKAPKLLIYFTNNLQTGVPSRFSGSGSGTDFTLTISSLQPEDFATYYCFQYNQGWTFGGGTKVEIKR = 87

Please fill in: IC50, HEK293 ST2 NFkB cyno IL-33 reported for IL33-172 (antibody, human IgG1, kappa, V domains shown) VH: EVQLVESGGGLVQPGGSLRLSCAASGFTFSSYWMYWVRQAPGKGLEWVAAITPNAGEDYYPESVKGRFTISRDNAKNSLYLQMNSLRAEDTAVYYCARGHYYYTSYSLGYWGQGTLVTVSS VL: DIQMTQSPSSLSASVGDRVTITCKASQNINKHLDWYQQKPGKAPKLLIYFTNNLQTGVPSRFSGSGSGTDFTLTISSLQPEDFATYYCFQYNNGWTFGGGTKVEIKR = 222

Please fill in: IC50, HEK293 ST2 NFkB cyno IL-33 reported for IL33-175 (antibody, human IgG1, kappa, V domains shown) VH: EVQLVESGGGLVQPGGSLRLSCAASGFTFSSYWMYWVRQAPGKGLEWVAAITPNAGETYYPESVKGRFTISRDNAKNSLYLQMNSLRAEDTAVYYCARGHYYYTSYSLGYWGQGTLVTVSS VL: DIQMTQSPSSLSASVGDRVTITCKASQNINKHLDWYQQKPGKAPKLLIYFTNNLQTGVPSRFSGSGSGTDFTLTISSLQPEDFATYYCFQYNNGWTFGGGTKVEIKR = 86
